These measurements were taken from patent US11098032B2.

# pIC50 per record follows
# STUDY_TARGET: CYP11A1 (Homo sapiens)
# Construct: human H295R adrenocortical carcinoma cell line was used as source of enzyme; endogenous in cells
# PROTOCOL_DESCRIPTION: CYP11A1 inhibition: modified isocaproic acid release assay (IARA) in H295R cells
# RUN_PARAMETERS: human H295R adrenocortical carcinoma cells treated three days, 3 nM [24,25-3H]-labelled cholesterol, 1% DMSO, 10 concentrations in duplicates; read-out: IC50 of the test compounds on CYP11A1 inhibition
pIC50: −log10 of the molar value.
QUANTITY_KIND: pIC50

MOLECULE: CN=S(C)(=O)c1ccc(COc2coc(CN3Cc4ccccc4C3)cc2=O)cc1 (stereo not drawn)
MEASURED_RESULT: > 6.82
--
MOLECULE: CC(C)(C)NC(=O)c1ccc(COc2coc(CN3CCc4ccccc4C3)cc2=O)cc1
MEASURED_RESULT: 6.52 to 6.82
--
MOLECULE: O=C(N1CCCC1)N1CCC(COc2coc(CN3Cc4ccccc4C3)cc2=O)CC1
MEASURED_RESULT: > 6.82
--
MOLECULE: CS(=O)(=O)N1[C@@H]2CC[C@H]1CC(COc1coc(CN3Cc4ccccc4C3)cc1=O)C2 (stereo partly drawn)
MEASURED_RESULT: 6.52 to 6.82
--
MOLECULE: CC1c2ccccc2CN1Cc1cc(=O)c(OCc2ccc(C(=O)N(C)C)cc2)co1 (stereo not drawn)
MEASURED_RESULT: 5.70 to 6.52
--
MOLECULE: CS(=N)c1ccc(COc2coc(CN3Cc4ccc(C(F)(F)F)cc4C3)cc2=O)cc1 (stereo not drawn)
MEASURED_RESULT: > 6.82
--
MOLECULE: O=c1cc(CN2Cc3ccccc3C2)occ1OCC1CCN(S(=O)(=O)c2ccc(F)cc2)CC1
MEASURED_RESULT: 6.52 to 6.82
--
MOLECULE: O=C(COc1coc(CN2Cc3ccccc3C2)cc1=O)N1CCN(c2ccc(Cl)cc2)CC1
MEASURED_RESULT: 5.70 to 6.52
--
MOLECULE: CN(C)C(=O)/C=C/c1ccc(COc2coc(CN3Cc4ccccc4C3)cc2=O)cc1
MEASURED_RESULT: > 6.82
--
MOLECULE: C[C@@H]1c2ccccc2CN1Cc1cc(=O)c(OCc2ccc(C(=O)N(C)C)cc2)co1
MEASURED_RESULT: 5.70 to 6.52
--
MOLECULE: CCS(=O)(=O)N1CCC(COc2coc(CN3Cc4ccc(F)cc4C3)cc2=O)CC1
MEASURED_RESULT: > 6.82
--
MOLECULE: CN(C)C(=O)c1ccc(COc2coc(CN3Cc4cc(F)c(F)cc4C3)cc2=O)cc1 [Compound 82a]
MEASURED_RESULT: 6.52 to 6.82
--
MOLECULE: C[S+]([O-])c1ccc(COc2coc(CN3Cc4ccccc4C3)cc2=O)cc1 (stereo not drawn)
MEASURED_RESULT: 6.52 to 6.82
--
MOLECULE: CS(=O)(=O)N1CCC(COc2coc(CN3Cc4ccc(C(F)(F)F)cc4C3)cc2=O)CC1
MEASURED_RESULT: > 6.82
--
MOLECULE: COCCNS(=O)(=O)c1ccc(COc2coc(CN3Cc4ccccc4C3)cc2=O)cc1
MEASURED_RESULT: > 6.82
--
MOLECULE: CS(=O)(=O)c1ccc(COc2coc(CN3Cc4cc5c(cc4C3)OCO5)cc2=O)cc1
MEASURED_RESULT: 5.70 to 6.52
--
MOLECULE: O=C(c1ccc(COc2coc(CN3Cc4ccccc4C3)cc2=O)cc1)N1CCCC1
MEASURED_RESULT: > 6.82
--
MOLECULE: CCS(=N)(=O)c1ccc(COc2coc(CN3CCc4ccccc4C3)cc2=O)cc1 (stereo not drawn)
MEASURED_RESULT: 5.70 to 6.52
--
MOLECULE: CC(C)S(=O)(=O)N1CCC(F)(COc2coc(CN3Cc4ccccc4C3)cc2=O)CC1
MEASURED_RESULT: 6.52 to 6.82
--
MOLECULE: CC(C)S(=O)(=O)c1ccc(COc2coc(CN3Cc4ccccc4C3)cc2=O)cc1
MEASURED_RESULT: 6.52 to 6.82
--
MOLECULE: CC(=O)N1CCC(CCOc2coc(CN3Cc4ccccc4C3)cc2=O)CC1
MEASURED_RESULT: 5.70 to 6.52
--
MOLECULE: CC(C)(O)Cc1ccc(COc2coc(CN3CCc4ccccc4C3)cc2=O)cc1
MEASURED_RESULT: 6.52 to 6.82
--
MOLECULE: CN(C)C(=O)N1CCC(COc2coc(CN3Cc4ccc(F)cc4C3)cc2=O)CC1
MEASURED_RESULT: 6.52 to 6.82
--
MOLECULE: CN(C)C(=O)Cc1ccc(COc2coc(CN3Cc4ccccc4C3)cc2=O)cc1
MEASURED_RESULT: 6.52 to 6.82
--
MOLECULE: CS(=O)(=O)c1ccc(COc2coc(CN3Cc4ccccc4C3)cc2=O)c(C(F)(F)F)c1
MEASURED_RESULT: 5.70 to 6.52
--
MOLECULE: CC(=O)OCC(C)(C)NC(=O)c1ccc(COc2coc(CN3Cc4ccccc4C3)cc2=O)cc1
MEASURED_RESULT: 6.52 to 6.82
--
MOLECULE: O=c1cc(CN2Cc3ccccc3C2)occ1OCC1CN(S(=O)(=O)c2csc(Cl)c2)C1
MEASURED_RESULT: 6.52 to 6.82
--
MOLECULE: CS(=O)(=O)NCc1ccc(COc2coc(CN3Cc4ccccc4C3)cc2=O)cc1
MEASURED_RESULT: > 6.82
--
MOLECULE: CCN(CCO)S(=O)(=O)c1ccc(COc2coc(CN3Cc4ccccc4C3)cc2=O)cc1
MEASURED_RESULT: > 6.82
--
MOLECULE: O=c1cc(CN2Cc3ccc(F)cc3C2)occ1OCc1ccc(C2(O)COC2)cc1
MEASURED_RESULT: > 6.82
--
MOLECULE: CS(=O)(=O)c1ccc(COc2coc(CN3Cc4cc(F)c(F)cc4C3)cc2=O)cc1
MEASURED_RESULT: 6.52 to 6.82
--
MOLECULE: CN(C)C(=O)c1ccc(CCOc2coc(CN3Cc4ccccc4C3)cc2=O)cc1
MEASURED_RESULT: 5.70 to 6.52
--
MOLECULE: O=c1cc(CN2Cc3ccccc3C2)occ1OCc1ccc(S(=O)(=O)N2CCOCC2)cc1
MEASURED_RESULT: 6.52 to 6.82

* * *

# STUDY_TARGET: CYP11A1 (Homo sapiens, UniProt P05108)
# Construct: human H295R adrenocortical carcinoma cell line was used as source of enzyme; endogenous in cells
# Sequence (P05108 40-521): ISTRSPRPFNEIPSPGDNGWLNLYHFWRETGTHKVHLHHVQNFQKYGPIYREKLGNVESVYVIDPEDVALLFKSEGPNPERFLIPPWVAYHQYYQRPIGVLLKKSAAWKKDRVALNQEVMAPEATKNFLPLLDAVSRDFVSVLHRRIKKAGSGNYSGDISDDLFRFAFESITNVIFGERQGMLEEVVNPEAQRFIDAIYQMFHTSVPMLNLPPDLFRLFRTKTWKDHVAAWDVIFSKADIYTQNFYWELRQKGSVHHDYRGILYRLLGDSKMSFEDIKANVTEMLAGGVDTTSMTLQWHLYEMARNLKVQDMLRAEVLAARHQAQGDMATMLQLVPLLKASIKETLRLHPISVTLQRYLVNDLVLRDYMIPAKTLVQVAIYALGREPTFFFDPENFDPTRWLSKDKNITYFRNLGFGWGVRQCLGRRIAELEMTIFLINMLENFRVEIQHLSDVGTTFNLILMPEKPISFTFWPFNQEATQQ
# PROTOCOL_DESCRIPTION: CYP11A1 inhibition: modified isocaproic acid release assay (IARA) in H295R cells
# RUN_PARAMETERS: human H295R adrenocortical carcinoma cells treated three days, 3 nM [24,25-3H]-labelled cholesterol, 1% DMSO, 10 concentrations in duplicates; read-out: IC50 of the test compounds on CYP11A1 inhibition
pIC50: −log10 of the molar value. Structures can show the parent of a compound that is named as a salt.
# pIC50 per record follows

COMPOUND: CS(=N)(=O)c1ccc(COc2coc(CN3Cc4ccccc4C3)cc2=O)cc1 (stereo not drawn)
pIC50: 6.52 to 6.82

COMPOUND: CS(=O)(=O)C1CCC(COc2coc(CN3Cc4ccccc4C3)cc2=O)CC1 (stereo not drawn)
pIC50: 6.52 to 6.82

COMPOUND: CCS(=O)(=O)N1CCC(C)(COc2coc(CN3Cc4ccccc4C3)cc2=O)CC1
pIC50: > 6.82

COMPOUND: CC(=O)NC(C)(C)c1ccc(COc2coc(CN3Cc4ccccc4C3)cc2=O)cc1
pIC50: 6.52 to 6.82

COMPOUND: CN(C)C(=O)c1ccc(COc2coc(CN3Cc4ccc(C(F)(F)F)cc4C3)cc2=O)cc1
pIC50: > 6.82

COMPOUND: O=c1cc(CN2Cc3ccccc3C2)occ1OC[C@H]1CC[C@H](N2CCCS2(=O)=O)CC1
pIC50: > 6.82

COMPOUND: O=C(NCCCCO)c1ccc(COc2coc(CN3Cc4ccccc4C3)cc2=O)cc1
pIC50: 5.70 to 6.52

COMPOUND: O=c1cc(CN2Cc3ccccc3C2)occ1OCC1CCN(S(=O)(=O)N2CCC2)CC1
pIC50: 6.52 to 6.82

COMPOUND: CS(=O)(=O)N1CCC(COc2coc(CN3Cc4ccc(OC(F)(F)F)cc4C3)cc2=O)CC1
pIC50: > 6.82

COMPOUND: O=c1cc(CN2Cc3ccccc3C2)occ1OCC1CCSCC1
pIC50: > 6.82

COMPOUND: CS(=O)(=O)N1CCC(COc2coc(CN3Cc4ccc([N+](=O)[O-])cc4C3)cc2=O)CC1
pIC50: 5.70 to 6.52

COMPOUND: O=C(c1ccc(COc2coc(CN3CCc4ccccc4C3)cc2=O)cc1)N1CCCC(O)C1 (stereo not drawn)
pIC50: 5.70 to 6.52

COMPOUND: CCN(CC)C(=O)c1ccc(COc2coc(CN3Cc4ccccc4C3)cc2=O)cc1
pIC50: 6.52 to 6.82

COMPOUND: O=c1cc(CN2Cc3ccccc3C2)occ1OCc1ccc(-c2ccccc2)cc1
pIC50: 6.52 to 6.82

COMPOUND: CC(C)(O)c1ccc(COc2coc(CN3Cc4ccccc4C3)cc2=O)cc1
pIC50: > 6.82

COMPOUND: CS(=O)(=O)NCC1CCC(COc2coc(CN3Cc4ccccc4C3)cc2=O)CC1 (stereo not drawn)
pIC50: > 6.82

COMPOUND: O=c1cc(CN2Cc3ccccc3C2)occ1OC[C@H]1C=C[C@@H](NS(=O)(=O)C2CC2)C1 (relative stereo) [Compound 274, Formate]
pIC50: 5.70 to 6.52

COMPOUND: O=C(c1ccc(COc2coc(CN3Cc4ccc(F)cc4C3)cc2=O)cc1)N1CCC1
pIC50: 5.70 to 6.52

COMPOUND: CS(=O)(=O)N1CCC(CCOc2coc(CN3Cc4ccccc4C3)cc2=O)CC1
pIC50: 6.52 to 6.82

COMPOUND: CN(C)C(=O)c1ccc(COc2coc(CN3Cc4ccccc4C3)cc2=O)cc1
pIC50: 6.52 to 6.82

COMPOUND: O=c1cc(CN2Cc3ccc(F)cc3C2)occ1OCC1CCN(S(=O)(=O)C2CC2)CC1
pIC50: > 6.82

COMPOUND: COc1ccc2c(c1)CCN(Cc1cc(=O)c(OCc3ccc(C#N)cc3)co1)C2
pIC50: 6.52 to 6.82

COMPOUND: CS(=O)(=O)N1CCC(COc2coc(C[N+]3([O-])Cc4ccc(C(F)(F)F)cc4C3)cc2=O)CC1 (stereo not drawn)
pIC50: 5.70 to 6.52

COMPOUND: O=c1cc(CN2Cc3ccccc3C2)occ1OCc1ccc(-n2ccnn2)cc1
pIC50: 6.52 to 6.82

COMPOUND: CS(=O)(=O)N1CCC(COc2coc(CN3Cc4ccc(Cl)cc4C3)cc2=O)CC1
pIC50: 6.52 to 6.82

COMPOUND: CS(=O)(=O)N1CCC(COc2coc(CN3Cc4ccc(C#N)cc4C3)cc2=O)CC1 [Compound 245a]
pIC50: 5.70 to 6.52

COMPOUND: CNC(=O)C1CCC(COc2coc(CN3Cc4ccccc4C3)cc2=O)CC1 (stereo not drawn)
pIC50: 6.52 to 6.82

COMPOUND: O=c1cc(CN2Cc3ccccc3C2)occ1OCc1ccc(Br)cc1
pIC50: 5.70 to 6.52

COMPOUND: CCC(=O)N1CCC(COc2coc(CN3Cc4ccc(F)cc4C3)cc2=O)CC1
pIC50: > 6.82

COMPOUND: O=c1cc(CN2Cc3ccccc3C2)occ1OCc1ccc([N+](=O)[O-])cc1
pIC50: 5.70 to 6.52

COMPOUND: CN(C)C(=O)c1ccc(COc2coc(CN3Cc4ccc(F)cc4C3)cc2=O)cc1
pIC50: 6.52 to 6.82

COMPOUND: CS(=O)(=O)N1CCC(COc2coc(CN3Cc4cc5c(cc4C3)OCO5)cc2=O)CC1
pIC50: 6.52 to 6.82

COMPOUND: CN(C)C(=O)c1ccc(COc2coc(CN3Cc4ccccc4C3)cc2=O)nc1
pIC50: 5.70 to 6.52
